Recorded TBIL, one value per entry.
species on record: Rattus norvegicus; assay: Open TG-GATES - Regimen: Daily Repeat; assay type: toxicity, organism-based, Sprague-Dawley; design: regimen Daily Repeat, gender Male, age 6 weeks; conditions: in vivo, po, 100 mg/kg, […], tissue Plasma, route gavage, dose level Low, time 7 day
Give just the number in mg/dL; leave the unit off.

// below: answered molecules
# TBIL (molecule: COC1=CC(=O)C[C@@H](C)[C@]12Oc1c(Cl)c(OC)cc(OC)c1C2=O ) is 0.1

# molecule COc1ccc2[nH]c([S+]([O-])Cc3ncc(C)c(OC)c3C)nc2c1 (stereo not given) ; its TBIL = 0.1

More entries:
Just so you know, measured TBIL for CCOC(=O)CCC(=O)O[C@H]1[C@H](O[C@@H]2[C@@H](C)[C@H](O[C@H]3C[C@@](C)(OC)[C@@H](O)[C@H](C)O3)[C@@H](C)C(=O)O[C@H](CC)[C@@](C)(O)[C@H](O)[C@@H](C)C(=O)[C@H](C)C[C@@]2(C)O)O[C@H](C)C[C@@H]1N(C)C [ERYTHROMYCIN ETHYLSUCCINATE] came out at 0

Briefly, TBIL measured for CCOc1ccc(NC(=O)CC(C)O)cc1 (stereo not given) : 0.04

In plain terms, NC(N)=Nc1nc(CSCCC(N)=NS(N)(=O)=O)cs1 has a documented TBIL of 0.2

----------
species on record: Rattus norvegicus; experiment: Open TG-GATES - Regimen: Single; type: toxicity, organism-based, Sprague-Dawley; set-up: regimen Single, gender Male, age 6 weeks; details: in vivo, po, 1000 mg/kg, 3 h, tissue Plasma, route gavage, dose level High
Assay metric: DBIL

Measured DBIL, COc1ccc2[nH]c([S+]([O-])Cc3ncc(C)c(OC)c3C)nc2c1 (stereo not given) : 0.072 mg/dL

---
Value of DBIL reported for the molecule CC(C)OC(=O)C(C)(C)Oc1ccc(C(=O)c2ccc(Cl)cc2)cc1 [FENOFIBRATE] is 0.018 mg/dL

Memo: CCOC(=O)CCC(=O)O[C@H]1[C@H](O[C@@H]2[C@@H](C)[C@H](O[C@H]3C[C@@](C)(OC)[C@@H](O)[C@H](C)O3)[C@@H](C)C(=O)O[C@H](CC)[C@@](C)(O)[C@H](O)[C@@H](C)C(=O)[C@H](C)C[C@@]2(C)O)O[C@H](C)C[C@@H]1N(C)C [ERYTHROMYCIN ETHYLSUCCINATE] , reported DBIL: 0.014 mg/dL

Data point: COC1=CC(=O)C[C@@H](C)[C@]12Oc1c(Cl)c(OC)cc(OC)c1C2=O ; DBIL = 0.2 mg/dL

Form: molecule = NC(N)=Nc1nc(CSCCC(N)=NS(N)(=O)=O)cs1 ; DBIL = 0.07 mg/dL

----------
species on record: Rattus norvegicus; experiment: Open TG-GATES - Regimen: Single; type: toxicity, organism-based, Sprague-Dawley; set-up: regimen Single, gender Male, age 6 weeks; conditions: in vivo, po, 30 mg/kg, 9 h, tissue Plasma, route gavage, dose level Middle
Assay metric: RALB (g/dL)
Quick reminder: number only, in g/dL, skip the unit.

# annotated cases, reported RALB shown
Field RALB (entry CC1=C(/C=C/C(C)=C/C=C/C(C)=C/CO)C(C)(C)CCC1 ) reads 3.1

The recorded RALB for entry CN(C)CCCN1c2ccccc2CCc2ccc(Cl)cc21 equals 2.6

Further cases:
Input CN(C)CCCN1c2ccccc2CCc2ccccc21 . Output RALB: 2.5

Lab book: RALB of CN(C)CCN(Cc1cccs1)c1ccccn1 noted as 3
